- assayMethodText: yeast display, Sf9 membrane polyspecificity reagent, FACS + sequencing; frameworks hold sequencing errors
endpointName: polyreactivity (PSR sort gate)

1) QVQLVESGGGLVQAGGSLRLSCAASGRTFYFYAMGWYRQAPGKERELVAAISSGASTYYADSVKGRFTISRDNAKNTVYLQMNSLKPEDTAVYYCAAEFWTQWSGYEYWGQGTQVTVSS; high polyreactivity
2) QVQLVESGGGLVQAGGSLRLSCAASGRIFRYYAMGWYRQAPGKERELDAAISRSGGSTYYADSVKGRFTISRDNAKNTVYLQMNSLKPEDTAVYYCAARVYRYGAMDYWGQGTQVTVSS; high polyreactivity

----------
- assayMethodText: yeast display, Sf9 membrane polyspecificity reagent, FACS + sequencing; frameworks hold sequencing errors
endpointName: polyreactivity (PSR sort gate)

Some solved entries appear below for comparison.
1. QVQLVESGGGLVQAGGSLRLSCAASGSIFYWYAMGWYRQAPGKERELVASIRWSGGTYYADSVKGRFTISRDNAKNTVYLQMNSLKPEDTAVYYCNKGGGRGHFEYWGQGTQVTVSS; low polyreactivity
2. QVQLVESGGGLVQAGGSLRLSCAASGIIYGRYAMGWYRQAPGKERELVAAINASGGSTYYADSVKGRFTISRDNAKNTVYLQMNSLKPEDSAVYYCATRSTRSRTSGYYYWGQGTQVTVSS; high polyreactivity
3. QVQLVESGGGLVHAGGSLRLSCAASGFTFPGYAMGWYRQAPGKERELVAAISRGGAGTYYADSVKGRFTISRDNAKNTVYLQMHSLKPEDTAFYDCAAATDNPSLFQDMYYWGQGTQLTVSS; high polyreactivity
4. QVQLVESGGGLVQAGGSLRLSCAASGRIFTHYAMGWYRQAPGKERELVASISWSGGSTNYADSVKGRFTMSRDNAMNTVYLQMNSLKPEDTAVYYCARKYRYLFATFDYWGQGTQVTVSS; high polyreactivity

Now let's try a different one.
# polyreactivity (PSR sort gate) of `QVQLVESGGRLVQSGGSLRLSCAASGFIFSYNAMGLYRQAPGKERELVASIRTRGGSTYYADSVKGRFTISRDNAKNSVYLQMNSLKPEDTAVYYCAARPFQRRYDYWGQGTQVTVST` = low polyreactivity

----------
- assayMethodText: yeast display, Sf9 membrane polyspecificity reagent, FACS + sequencing; frameworks hold sequencing errors
endpointName: polyreactivity (PSR sort gate)

Some solved entries appear below for comparison.
1) QVQLVESGGGLLQAGGSLRLSCAASGSTYIGNAMGWYRQAPGKERELVAAITSGGSTNYADSVKGRFTISRDNAKNTVYLQKNSLKPEDTAVYYCAKPSRWGWTGFYAYDYWGQGTQVTVSS; low polyreactivity
2) QVQLVESGGGLVQAGGSLRLSCAASGSTSTWYAMGWYRQAPGKERELVATITGSGDTTYYADSVKGRFTISRDNAKNTVYLQMNSLKPEDTAVYYCAADYDPDDDTYDYWGQGTQVTVSS; low polyreactivity
3) QVQLVESGGGLVQAGGSLRLSCAASGSTLSDYVMGWYRQAPGKERELVAAITSGGSTSYADSVKGRFTISRDNAKNTVYLQMNSLKPEDTAVYYCNATLLFPLLYGPESGEFDYWGQGTQVTVSS; low polyreactivity
4) QVQLVESGGGLVQAGGSLRLSCAASGFIFPGNARGWYRQAPGKERELVAAISNSGSRTYYADSVKGRFTISRDNAKNTVYLQMNSLKPEDTAVYYCAALNYHKFAHKYDYWGQGTQVTVSS; low polyreactivity
5) QVQLVESGGGLVQAGGSLRLSCAASGSTFVYNTMGWYTQAPGKERELVAGIDWSGGRTFYADSVKGRFTISRDNAKNTVYLQMNSLKPEDTAVYYCAKRLRVYRPWTYNYWGQGTQVTVSS; high polyreactivity
6) QVQLVESGGALVQAGGSLRLSCAASGSTFAYNAMGWYRQAPVKERELVAAITWNGGDTYYADSVKGRFTISRDNAKNTVYLQMNSLKPEDTAVYYCAAEDTYYRDSDYWGQGTQVTVSS; low polyreactivity

# polyreactivity (PSR sort gate) of `QVHLVESGGGLVQAGGSLRLSCAASGFTFDYNAMGWYRQAPGKEMELVAAISGSGGSTYYADSVKGRFTISRDNAKNTVYLQMNSLKPEDSSVYYCNAGRVTRRDTFDYWGQGTQVTVSS` = high polyreactivity

----------
- assayMethodText: yeast display, Sf9 membrane polyspecificity reagent, FACS + sequencing; frameworks hold sequencing errors
endpointName: polyreactivity (PSR sort gate)

Some solved entries appear below for comparison.
1) QVQRVESGGGLVQAGGSLRLSCAGSGSTFAQNGMGWYRPAPGKERELVAAIRWNGGSTYYADSVKGRFTISRDNAKNTVYLQMNSLKPEDTAVYYCAARHPLYRVQHEDWGQGTQVTVSS; low polyreactivity
2) QVQLVESGGGLVQAGGSLRLSCAASGRTFGYYARGWYRQAPGKERELVADISSGGSTSYADSVKGRFTISRDNAKNTVYLQMNSLKPEDTAVYYCAADSHQNFSGWLRWPRMDYWGQGSQVTVSS; low polyreactivity
3) QVQLVESGGGLVQAGGSLRLSCAASGITFPYYAMGWSRQAPGKERELVAAISSSGGSSYYADSVKGRFTISRDNAKNTVYLQMNSLKPEDTAVYYCATRNTRFHLDYWGQGTQVTVSS; high polyreactivity
4) QVQLVESGGGLVQAGGSLRLSCAASGGTFSYYAMGCYRQAPGKERELVASISTDGGSTYYADSVKGRFTISRDNAKNTVYLQMNSLKPEDTAVYYCNARPRGYSDRYGYWGQGTQVTVSS; high polyreactivity
5) QGQLVESGGGLVQAGGSLRLSCAASGFTFRGYAMGWYRQAPGKERELVATITSGGDTNDADSVKGRFTISRDNAKKTVYLQMNSLKPEDTAVYYCAAHDWEFVEEAGPVPWTPYDYWGQGTQVTVSS; low polyreactivity

# polyreactivity (PSR sort gate) of `QVQHVESGGGLDQAGGRLRLSCAASGFTFARNAMGWYRQAPGKDRELVAAINRSGGSTYYADSVKGRFTISRDNAKNTVYLQMNSLKPEDTAVYYCNAPYAQFTSGYDYWGQGTQVTVSS` = high polyreactivity

# polyreactivity (PSR sort gate) of `QVQLVESGGGLVQAGGSLRLSCAASGSTFRIYAMGWYRQAPGKERELVAAIRRRGASTYYADSVKGRFTISRDNAKNTVYLQMISLKPEDTAVYYCAASYFWDRVPGRGIHDYWGQGTQVTVSS` = high polyreactivity

# polyreactivity (PSR sort gate) of `QVQLVESGGGLVQAGGSLRLSCAASGSIFRKYVMGWYRQAPGKERELVAAISGSGGRTYYADSVKGRFTISRDNAKNTVYLQMNSLKPEDTAVSYSNAYPHAYTGSTREGDYWGQGTQVTVSS` = high polyreactivity

# polyreactivity (PSR sort gate) of `QVQLVESGGGLVQAGGSLRLSCAASGSTFRGYAKGWNRQAPGKERELVAAISSRGARTHYADSVKGRFTISRDNAKNTVYLQMNSLKPEDTAVYYCAVGSPYYDGMDYWGQGTQVTVSS` = low polyreactivity

# polyreactivity (PSR sort gate) of `QVQLVESGGGLVQAGGSLRLSCAASGSTFPPNAMGWYRQAPGKERELVAAISFSSGRTYYADSVKGRFTISRDNAKNTVYLQMNSLKPEDTAVYYCAADHGYWGQGTQVTVSS` = low polyreactivity

# polyreactivity (PSR sort gate) of `QVQLVESGGGLVQAGGSLRLSCAASGRIFAIYAMGWYRQAPGKERELVAGITYSAGSTYYADSVKGRFTISRDNAKNTVYLQMNSLKREDTAVYYCAALEYTSHRYGYDYWGQGTQVTVSS` = low polyreactivity

----------
- assayMethodText: yeast display, Sf9 membrane polyspecificity reagent, FACS + sequencing; frameworks hold sequencing errors
endpointName: polyreactivity (PSR sort gate)

Some solved entries appear below for comparison.
1) QGQLGESGGGLVQAGGSLRLSCAASGGTFYYYAMGWYRHAPGKEREFVAAITWTGGRTYYADSVKGRFTISRDNAKNTVYLQMNSLKPEDSAVYYCAASDRYGGRDYWGQGTQVTVSS; high polyreactivity
2) QVQLVESGGGLVQAGGSLRLSCAASGSILLYYAMGGSRPAPGKERQLVAAITCSGGSTYYADSVKGRFTISRDNAKNTDYLQMNSQKPEDTAVYYCNAVTDRAGSDYDSWGQGTQVTVSS; low polyreactivity
3) QVQLVESGGGLVQAGGSLRLSCAASGRTFLYNAMGWYRQAHGKERELVAAIDQSGGSTYYADSVKGRFTISRDNAKNTVYLQMNSLKPEDTAVYYCAAYWEGSWYYKKYYYWGQGTQVTVSS; high polyreactivity
4) QFQLVESGGGLVQAGGSLRLSCAASGSTFPLYAMGWYRPAPGKERELVAAITSGGGNTYYADSVKGRFTISRDNAKNTVYLQMNSLKPEDTAVYSCAAVGGYKSYYSYEYDYWGQGTQVTVSS; low polyreactivity

# polyreactivity (PSR sort gate) of `QVQLVESGGGLVQAGGSLRLSCAASGSIFDEYAMGWYRQAPGKERELVAAITYSGGDTYYADSVKGRFTISRDNAKNTVYLQMNSLKPEDTAVYYCAVDTPLEYYHQQAYVAGEYWGQGTQVTVSS` = low polyreactivity

# polyreactivity (PSR sort gate) of `QVQLVESGGGLVQAGGSLRLSCAASGSTIVSYDMGWYRPAPGKDRELVAAITYDGDSTYYADSVKGRFTISRDNAKNTVYLQMNSLKPEDTAVYYCAAEPGDDLKFRGGFEYWGQGTQVTVSS` = low polyreactivity

# polyreactivity (PSR sort gate) of `QVQLVESGGGLVQAGGSLRLSCAASGITFWLYAMGWYRQAPGKERELVAAISYSGGSTYYADSVKGRFTISRDNAKNTVYLQMNSLKPEETEVYYCNTGSRYRPNRRYGYWGQGTQVTVSS` = high polyreactivity

# polyreactivity (PSR sort gate) of `QVQLVESGGGLVQAGGSLRLSCAASGSTFDSNAMGWYRQAPGKERELVAASDWSGGSTYYADSVKGRFTISRDNAKNTVYLQMNSLNPEDTGVYYGDADDSSINYGDFDYWGQGTQVTVTS` = low polyreactivity

# polyreactivity (PSR sort gate) of `QVQLEESGGGLVQAGGSLRVSCAASGRTSEIYTLGGYRTAPGKERELVASINTNYADSGKGRFTISRDIAKNTVYLQLISLKPDDTAVYYCNADDTIEFNYWGQGTQVTVSW` = low polyreactivity

# polyreactivity (PSR sort gate) of `QVQLVESGGGLVQAGGSLRLSCAASGSTFKLYAMGWYRPAPGKERELVAAITRSGTRTYYADSVKGRFTISRDNAKNTVYLQMNSLKPEDTAVYYCAADGYRISGYDYWGQGTQVTVSS` = high polyreactivity

# polyreactivity (PSR sort gate) of `QVQLVESCGGLVQAGGSLRLSCAASGLTFPKYAMGWYRQAPGKERELVARISYSGASTYYADSVKGRFTISRDNAKNTVYLQMNSLKPEDTAVYYCAARIYRVYYVHFAPYYYWGQGTQVTVSS` = high polyreactivity
